Values were extracted from PubChem BioAssay (NCATS).

test: Cell Viability - LYMP2-018 (AID 985); conditions: LYMP2-018 lymphoblastoid cells, viability (qHTS); series mostly up to 92.2 µM;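 further: compound exposure lasted 24 hr at 37 °C; nearly all actives have a fitted effect of over 50% in size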
Results filed as inconclusive are left out. Activity calls are given as the source filed them. The call rests on the fitted dose curve; in most records, active means well fitted cell-killing curve with a large enough effect; inconclusive means small, poorly fitted or top-dose-only effect; inactive means flat fitted curve, though single readings scatter.
Outcome codes: 1.0 for active, 0.0 for inactive

molecule | class-label
CCOC(C)=O | 0.0
CC1=C2[C@@H]([C@H](C)CC[C@H]2/C=C(\C)C(=O)O)[C@H](O)C1 | 0.0
CCCCC/C=C\C/C=C\CCCCCCCC(=O)O | 0.0
CC(C)=O | 0.0
O=S(=O)(O)O | 0.0
IC(I)I | 0.0
CC(O)CO (stereo not drawn) | 0.0
O=C(O)CCC(=O)C(=O)O | 0.0
Cc1ccccc1 | 0.0
CCOc1ccc2c(c1)C(C)=CC(C)(C)N2 | 0.0
Nc1ccn([C@H]2CS[C@@H](CO)O2)c(=O)n1 | 0.0
O=CCCCC=O | 1.0
CC1=C(/C=C/C(C)=C/C=C/C(C)=C/CO)C(C)(C)CCC1 | 1.0
